Documented z-score across a set of compounds
- ASSAY SYSTEM: Luciferin 4-monooxygenase (Photinus pyralis) (UniProt P08659)
- Sequence (P08659 whole entry, looked up): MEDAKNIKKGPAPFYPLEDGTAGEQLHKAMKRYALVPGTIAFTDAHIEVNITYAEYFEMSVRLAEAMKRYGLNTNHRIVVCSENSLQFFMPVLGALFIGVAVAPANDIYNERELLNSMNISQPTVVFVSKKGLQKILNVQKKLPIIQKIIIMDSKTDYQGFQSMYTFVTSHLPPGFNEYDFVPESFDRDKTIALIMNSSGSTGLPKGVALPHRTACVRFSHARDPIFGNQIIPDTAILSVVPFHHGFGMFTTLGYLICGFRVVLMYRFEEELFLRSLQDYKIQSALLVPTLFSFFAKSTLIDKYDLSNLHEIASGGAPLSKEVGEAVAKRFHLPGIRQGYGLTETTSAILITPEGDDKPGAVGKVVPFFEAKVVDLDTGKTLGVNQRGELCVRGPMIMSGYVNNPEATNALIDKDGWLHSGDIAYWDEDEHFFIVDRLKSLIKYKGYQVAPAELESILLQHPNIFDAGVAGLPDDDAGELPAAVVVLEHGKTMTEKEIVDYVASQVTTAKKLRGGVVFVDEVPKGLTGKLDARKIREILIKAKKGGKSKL
- MEASUREMENT NOTES: firefly luciferase enzyme inhibitors, primary screen, biochemical, luminescence, purified enzyme, 2006 set (AID 1141);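 also: cell-free assay with purified firefly luciferase at 100 ng per well in PBS; test concentration not given here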
- SETUP CONDITIONS: SteadyGlo luminescence, 30 min, higher = more signal, called active from +8 up or from −8 down

| COMPOUND | z-score |
| --- | --- |
| C=CCNC(=O)[C@@H]1[C@H]2C(=O)O[C@H](c3ccccc3)[C@H](c3ccccc3)N2[C@H](c2ccc(O)cc2)[C@@]12C(=O)Nc1ccc(C#CC3(O)CCCCCC3)cc12 | 0.27 |
| O=c1cccc(-c2ccccc2C(F)(F)F)o1 | 1.24 |
| CC(C)C[C@@H]1NC(=O)[C@@H]2C[C@H](C(=O)NCCCC[N+](C)(C)C)[C@H](c3ccc(O)cc3)N2C1=O | -0.948 |
| C[N+](C)(C)CCCC[C@@H]1NC(=O)[C@H]2C[C@@H](C(=O)NCCCCCNC(=O)CS)[C@@H](c3ccc(O)cc3)N2C1=O | -1.2 |
| COCCOC(=O)N1C(=O)[C@@]2(c3cc(C#CCCO)ccc31)[C@H](C(=O)N1CCc3cc(OC)c(OC)cc3C1)[C@H]1C(=O)O[C@H](c3ccccc3)[C@H](c3ccccc3)N1[C@@H]2c1ccccc1OCCO | 0.151 |
| C=CCC(OC(C)=O)[C@@H]1[C@@H](N(Cc2ccc(-c3ccccc3)cc2)C(=O)c2ccc(-c3ccccc3)cc2)c2cc(OCCCO)ccc2N1C(=O)c1ccc2ccccc2n1 (some centres undefined) | -1.46 |
| COc1ccccc1CN1C(=O)c2ccccc2[C@@H](C(=O)NCCCN(C)C)[C@@H]1c1ccc(CO)cc1 | 0.731 |
| COCCOC(=O)N1C(=O)[C@@]2(c3ccccc31)[C@H](C(N)=O)[C@H]1C(=O)O[C@H](c3ccccc3)[C@H](c3ccccc3)N1[C@@H]2c1ccc(OCCO)cc1 | 0.346 |
| Cc1c(NC(=O)/C(C#N)=C/c2ccc(Cl)cc2)c(=O)n(-c2ccccc2)n1C | -0.304 |
| Cc1ccccc1C(O)C1C=CC2C(=O)N(c3ccccc3)C(=O)C2N1Nc1ccccc1F (centres undefined) | -0.782 |
| C=CC[C@]1(C(=O)N(C)C)COC(c2ccc(OCCCO)cc2)=N1 | -2.7 |
| CO[C@H]1O[C@H](CO)[C@@H](OC(=O)Nc2ccccc2)[C@@H]2OC(=O)[C@H](Cc3ccccc3)C/C=C/C[C@@H](Cc3ccccc3)C(=O)O[C@@H]12 | -0.617 |
| C=CCC(OC(C)=O)[C@@H]1[C@@H](N(Cc2ccc(-c3ccccc3)cc2)C(=O)c2ccc(C)cc2)c2cc(OCCCO)ccc2N1C(=O)c1ccc2ccccc2c1 (some centres undefined) | -1.9 |
| CCCC[C@@H]1C[C@H]1[C@@H](NC(=O)c1ccc(C(F)(F)F)cc1)c1ccc(C(=O)OC)cc1 | 0.915 |

====

- ASSAY SYSTEM: Fibroblast growth factor 2 (Homo sapiens) (UniProt P09038)
- Sequence (P09038 whole entry, looked up): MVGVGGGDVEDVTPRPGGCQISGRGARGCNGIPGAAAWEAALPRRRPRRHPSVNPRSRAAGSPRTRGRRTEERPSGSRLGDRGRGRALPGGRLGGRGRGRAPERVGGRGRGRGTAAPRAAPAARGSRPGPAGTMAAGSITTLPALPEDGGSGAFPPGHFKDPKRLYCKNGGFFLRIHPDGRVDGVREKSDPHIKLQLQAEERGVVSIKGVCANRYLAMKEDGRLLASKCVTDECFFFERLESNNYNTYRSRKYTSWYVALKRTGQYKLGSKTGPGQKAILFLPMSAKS
- MEASUREMENT NOTES: FGF2 binders on small-molecule microarrays, primary screen, biochemical, small-molecule microarray, 635/667 nm fluorescence (AID 1133)
- SETUP CONDITIONS: small-molecule microarray binding, FGF2, fluorescence 635/667; higher = more signal
Label class 1 when composite z-score is at or above -0.0002; anything below gets class 0.

| COMPOUND | CLASS LABEL |
| --- | --- |
| C=CC[C@]1(C(=O)OC)N=C(c2ccc(OCCCO)cc2)O[C@H]1c1ccccc1N=[N+]=[N-] | class 1 |
| CCOC(=O)C[C@H]1[C@H](OC(=O)c2ccc(-c3ccccc3)cc2)[C@@H](NC(=O)c2ccc3ccccc3c2)c2cc(OCCCO)ccc2N1C(=O)c1ccccc1 | class 1 |
| O=C1C2C=CC(C(O)c3cccs3)N(Nc3ccccc3)C2C(=O)N1c1ccccc1 (configuration not stated) | class 0 |
| COCCOC(=O)N1C(=O)[C@@]2(c3cc(C#CCCO)ccc31)[C@H](c1ccc(O)cc1)N1[C@H](c3ccccc3)[C@H](c3ccccc3)OC(=O)[C@H]1[C@@H]2C(=O)N1CCc2cc(OC)c(OC)cc2C1 | class 1 |
| C=CCNC(=O)[C@H]1[C@@H]2C(=O)O[C@@H](c3ccccc3)[C@@H](c3ccccc3)N2[C@@H](c2ccccc2OCCO)[C@]12C(=O)N(C(=O)OCCOC)c1ccccc12 | class 1 |
| C=CCC(OC(C)=O)[C@@H]1[C@@H](N(Cc2cc3ccccc3o2)C(=O)Cc2ccc(OC)cc2)c2cc(OCCCO)ccc2N1C(=O)Cc1ccc(OC)cc1 (some centres not stated) | class 1 |
| COc1ccc(C(O)C2C=CC3C(=O)N(C)C(=O)C3N2Nc2ccc([N+](=O)[O-])cc2[N+](=O)[O-])cc1OCc1ccccc1 (configuration not stated) | class 0 |
| COCCOC(=O)N1C(=O)[C@@]2(c3cc(C#Cc4ccc(OC)cc4)ccc31)[C@H](C(=O)Nc1nc3ccccc3s1)[C@H]1C(=O)O[C@H](c3ccccc3)[C@H](c3ccccc3)N1[C@@H]2c1ccccc1OCCO | class 1 |
| COC(=O)[C@@]1(Cc2ccc(F)cc2)[C@H]2c3cc(C(=O)N(C)C)n(CCO)c3C[C@H]2CN1C(=O)c1ccccc1 | class 0 |
| C=CCC(OC(C)=O)[C@@H]1[C@@H](N(Cc2cccc3ccccc23)C(=O)c2cccc3ccccc23)c2cc(OCCCO)ccc2N1C(=O)Cc1ccc2ccccc2c1 (some centres not stated) | class 1 |
| CCOC(=O)C[C@H]1[C@H](OC(=O)Cc2ccc3c(c2)OCO3)[C@@H](NC(=O)c2ccccc2)c2cc(OCCCO)ccc2N1C(=O)Cc1ccc(OC)cc1 | class 0 |
| COCCOC(=O)N1C(=O)[C@@]2(c3ccccc31)[C@H](c1ccc(OCCO)cc1)N1[C@H](c3ccccc3)[C@H](c3ccccc3)OC(=O)[C@H]1[C@@H]2C(=O)N1CCN(c2ncccn2)CC1 | class 1 |
| COCCOC(=O)N1C(=O)[C@@]2(c3cc(C#CCC(C(=O)OC)C(=O)OC)ccc31)[C@H](C(=O)N1CCc3cc(OC)c(OC)cc3C1)[C@H]1C(=O)O[C@H](c3ccccc3)[C@H](c3ccccc3)N1[C@@H]2c1ccc(O)cc1 | class 1 |
| CC(C)CNC(=O)[C@@]1(C)c2ccccc2C(=O)N(Cc2cc(F)cc(C(F)(F)F)c2)[C@H]1c1ccc(CO)cc1 | class 1 |
| CC(C)CNC(=O)[C@@H]1c2ccccc2C(=O)N(C2Cc3ccccc3C2)[C@H]1c1ccc(CO)cc1 | class 1 |
| CN(C)C(=O)[C@@]1(CCS(=O)(=O)c2ccccc2)N=C(c2ccc(OCCCO)cc2)O[C@H]1c1ccccc1N=[N+]=[N-] | class 1 |
| COc1cc2c(cc1O)C(c1ccc(CN3CCCC3)cc1)N(Cc1ccc([N+](=O)[O-])o1)CC2 (configuration not stated) | class 1 |
| O=C(NCC(F)(F)F)[C@@H]1c2ccccc2C(=O)N(CC23CC4CC(CC(C4)C2)C3)[C@H]1c1ccc(CO)cc1 | class 1 |
| Cc1ccccc1C(O)C1C=CC2C(=O)N(c3ccccc3)C(=O)C2N1Nc1ccccc1F (configuration not stated) | class 1 |
| C=CC[C@]1(C(=O)NCCCOC)N=C(c2ccc(OCCCO)cc2)O[C@H]1c1ccccc1 | class 0 |
| C=CCC(OC(C)=O)[C@@H]1[C@@H](N(Cc2cc3ccccc3o2)C(=O)Cc2ccc(OC)cc2)c2cc(OCCCO)ccc2N1C(=O)Cc1ccc2ccccc2c1 (some centres not stated) | class 0 |
| COC(=O)c1ccc([C@H](NC(=O)c2ccccc2)[C@]2(C)C[C@H]2C2CCCCC2)cc1 | class 0 |
| O=C1OCCC=C[C@H]2OC34C=CCN(c5ccc(Cl)cc5)C(=O)[C@H]3N(CCO)C(=O)[C@@H]4C12 (some centres not stated) | class 0 |
| C=C(/C(=C/C[C@@H](OC(C)=O)c1ccccc1OCCO)c1cc(C(=O)OC)ccc1OC)C(C)C | class 1 |
| COCCOC(=O)N1C(=O)[C@@]2(c3cc(C#CC4(O)CCCCCC4)ccc31)[C@H](c1ccc(OCCO)cc1)N1[C@H](c3ccccc3)[C@H](c3ccccc3)OC(=O)[C@H]1[C@@H]2C(N)=O | class 1 |
| COCCn1c(C(=O)N2CCCC2)cc2c1C[C@H]1CN(C(=O)c3ccccc3)[C@@](Cc3ccccc3)(C(=O)OC)[C@@H]21 | class 1 |
